Answer each item with its documented pKd.
- target.desc: T1, human CD3 epsilon (Acro Cat #CDE-H5223) (human, UniProt P07766 23-126)
- T1 construct: Bought recombinant protein; also called rhCD3E
- assay.procedure: SPR (Biacore), antibody captured, human CD3 epsilon analyte
Entry type: numeric. Quantity: pKd, the -log10 of concentration in molar units.

*Q* pKd lookup needed for SRP 2037-B10 S107D/LC6 (antibody, human IgG1, kappa, V domains shown, human IgG1, kappa; also called 2037-B10 IgG S107D Lc6) VH: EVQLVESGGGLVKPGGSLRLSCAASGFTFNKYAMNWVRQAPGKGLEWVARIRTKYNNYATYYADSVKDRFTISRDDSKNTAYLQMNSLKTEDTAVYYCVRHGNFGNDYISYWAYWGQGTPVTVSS VL: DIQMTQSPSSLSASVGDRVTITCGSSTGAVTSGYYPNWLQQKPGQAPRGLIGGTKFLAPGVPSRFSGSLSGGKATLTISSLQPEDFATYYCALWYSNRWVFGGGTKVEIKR , thanks.
*A* 8.06

*Q* Give its pKd value. Item: SRP 2037-B10 F29D/LC6 (antibody, human IgG1, kappa, V domains shown, human IgG1, kappa) VH: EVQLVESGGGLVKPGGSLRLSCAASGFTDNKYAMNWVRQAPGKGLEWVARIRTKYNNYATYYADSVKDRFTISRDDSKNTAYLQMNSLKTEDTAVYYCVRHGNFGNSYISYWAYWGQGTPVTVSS VL: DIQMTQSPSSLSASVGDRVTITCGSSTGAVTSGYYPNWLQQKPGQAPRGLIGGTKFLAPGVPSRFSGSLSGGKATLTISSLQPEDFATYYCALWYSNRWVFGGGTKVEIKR
*A* 7.73

*Q* Which pKd value is on record for 2037-B10_Hc-Y61D (antibody, human IgG1, lambda, V domains shown, human IgG1, lambda; also called SRP 2037 Y61D; 2037-B10_VH-Y61D) VH: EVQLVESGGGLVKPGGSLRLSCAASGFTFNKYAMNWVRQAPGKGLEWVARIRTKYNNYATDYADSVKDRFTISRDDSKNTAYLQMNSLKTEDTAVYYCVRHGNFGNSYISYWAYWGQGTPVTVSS VL: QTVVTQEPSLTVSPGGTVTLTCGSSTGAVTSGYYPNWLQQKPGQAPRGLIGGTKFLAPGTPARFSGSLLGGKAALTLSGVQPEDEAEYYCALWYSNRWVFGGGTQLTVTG ?
*A* 8.47
